# measured target: UniProt:P00734
# assay: Related protease inhibition: Thrombin, fluorogenic substrate
# Format: biochemical
# stated conditions: fluorogenic substrate at Km, 25° C.; H1-H3 = % activity at 40 μM; read-out: IC50 (human thrombin) nM

{"compound": "CN1CCc2ccc(N3CCc4c(C(=O)NCC5(N)CC5)nn(-c5cccc(Cl)c5)c4C3=O)cc2C1=O", "measured target": "UniProt:P00734", "activity at 40 µM": "> 80%"}
{"compound": "CN1CCOc2ccc(N3CCc4c(C(=O)N[C@H](CO)C5CC5)nn(-c5cccc(Cl)c5F)c4C3=O)cc2C1=O", "measured target": "UniProt:P00734", "activity at 40 µM": "> 80%"}
{"compound": "CN1CCc2ccc(N3CCc4c(C(=O)NC5CNCC5(F)F)nn(-c5cccc(Cl)c5)c4C3=O)cc2C1=O (centres unmarked)", "measured target": "UniProt:P00734", "activity at 40 µM": "> 80%"}
{"compound": "Cc1ccc(CNC(=O)c2nn(-c3cccc(Cl)c3)c3c2CCN(c2ccc4c(c2)C(=O)N(CCO)CC4)C3=O)cn1", "measured target": "UniProt:P00734", "activity at 40 µM": "20 to 80%"}
{"compound": "CN1CCc2ccc(N3CCc4c(C(=O)NC5COCC56CC6)nn(-c5cccc(Cl)c5)c4C3=O)cc2C1=O (centres unmarked)", "measured target": "UniProt:P00734", "activity at 40 µM": "> 80%"}
{"compound": "CN1CCc2ccc(N3CCc4c(C(=O)N[C@H]5COC[C@@H]5O)nn(-c5cccc(Cl)c5)c4C3=O)cc2C1=O", "measured target": "UniProt:P00734", "activity at 40 µM": "> 80%"}
{"compound": "CCNC(=O)c1nn(-c2ccc(Cl)c(C)c2)c2c1CCN(c1ccc3c(c1)C(=O)N(C)CC3)C2=O", "measured target": "UniProt:P00734", "activity at 40 µM": "20 to 80%"}
{"compound": "CN1CCc2ccc(N3CCc4c(C(=O)NCC(=O)O)nn(-c5cc(Cl)cc(CN)c5)c4C3=O)cc2C1=O", "measured target": "UniProt:P00734", "activity at 40 µM": "> 80%"}
{"compound": "CN1CCOc2ccc(N3CCc4c(C(=O)N[C@@H]5CCOC5)nn(-c5cccc(Cl)c5F)c4C3=O)cc2C1=O", "measured target": "UniProt:P00734", "activity at 40 µM": "> 80%"}
{"compound": "CCNC(=O)c1nn(-c2cccc(Cl)c2)c2c1CCN(c1cccc(N3CCN(C)CC3=O)c1)C2=O", "measured target": "UniProt:P00734", "activity at 40 µM": "> 80%"}
{"compound": "CN1CCc2ccc(N3CCc4c(C(=O)NCC5(O)CC5)nn(-c5cccc(Cl)c5)c4C3=O)cc2C1=O", "measured target": "UniProt:P00734", "activity at 40 µM": "> 80%"}
{"compound": "CN1CCc2ccc(N3CCc4c(C(=O)N[C@@H](CO)C5CC5)nn(-c5cccc(Cl)c5F)c4C3=O)cc2C1=O", "measured target": "UniProt:P00734", "activity at 40 µM": "20 to 80%"}
{"compound": "CN1CCc2ccc(N3CCc4c(C(=O)N[C@@H]5COC[C@@H]5O)nn(-c5cccc(Cl)c5)c4C3=O)cc2C1=O", "measured target": "UniProt:P00734", "activity at 40 µM": "20 to 80%"}
{"compound": "CCNC(=O)c1nn(-c2cccc(Cl)c2)c2c1CCN(c1cccc(N3CCN(C)CC3)c1)C2=O", "measured target": "UniProt:P00734", "activity at 40 µM": "20 to 80%"}
